- EXPERIMENTAL_SETUP: in ethyl acetate, 321.05 K
ENDPOINT_NAME: solubility (mole fraction)
Lab note: record the figure alone, no unit after it.

What value of solubility (mole fraction) has been recorded for this entry: "CCCCOC(=O)c1ccc(O)cc1"
0.781

* * *

- EXPERIMENTAL_SETUP: in ethyl acetate, 301.05 K
ENDPOINT_NAME: solubility (mole fraction)
Lab note: jot the number down without any unit.

What value of solubility (mole fraction) has been recorded for this entry: "CCCCOC(=O)c1ccc(O)cc1"
0.591

* * *

- EXPERIMENTAL_SETUP: in acetonitrile, 301.05 K
ENDPOINT_NAME: solubility (mole fraction)
Answer as a number with no unit attached.

Bench note: what solubility (mole fraction) did "CCCCOC(=O)c1ccc(O)cc1" show?
0.61
